system: HCC-2998 colon; assay: NCI-60 one-dose screen, 48 h (100 = growth as untreated, 0 = no growth, -100 = all killed); conditions: 10 µM unless noted
This is part of a sample that, as a whole, favours compounds with a hit. Of some 83,000 tested, about 20% had one in any assay. Active and inactive are the calls of the source. Rule for the calls: active = growth percent below 10; inactive = the rest.
measured metric: growth

Worked cases, answers included:
COc1ccc(-c2c[nH]c(C(=O)O)c2-c2cc(OC)c3c(c2OC)OCO3)cc1    100% (inactive)
O=C1NC(=O)C(=Cc2cn(Cc3ccccn3)c3ccccc23)C(=O)N1    105% (inactive)
O=C1Nc2c(ccc(Cl)c2Cl)/C1=C/c1ccc(O)cc1    80.5% (inactive)
COc1ccc(C2CC(n3nnnc3-c3ccccc3)=NN2)cc1 (stereo unspecified)    72.3% (inactive)
O=C(Nc1cccc(C2=NCCN2)c1)c1ccc(OCCCOc2ccc(C(=O)Nc3cccc(C4=NCCN4)c3)cc2)cc1    -13.3% (active)

Let me check: CCC(C)C(N)C(=O)NNc1n[nH]c(=S)n1N (stereo unspecified) , system HCC-2998 colon, measured growth is 106% (inactive)

Let me check: COc1ccc(C(O)c2cc3c(N)c(C(=O)Nc4ccc(Br)cc4)sc3nc2C)cc1 (stereo unspecified) , system HCC-2998 colon, measured growth is 46.7% (inactive)

Let me check: N/C(=N\N=C\c1cc2ccccc2[nH]1)N/N=C/c1cc2ccccc2[nH]1 , system HCC-2998 colon, measured growth is 99.6% (inactive)

Let me check: CC(C)(C)OC(=O)N1C/C(=C\c2ccoc2)C(=O)/C(=C/c2ccoc2)C1 , system HCC-2998 colon, measured growth is 98.9% (inactive)

Let me check: CC(C)Cc1ccc(C(C)C(=O)NCc2c[nH]c3ccc(Cl)cc23)cc1 (stereo unspecified) , system HCC-2998 colon, measured growth is 103% (inactive)

Let me check: COc1ccc(-n2cc(-c3cc(OC)c(OC)c(OC)c3)n(C(C)=O)c2=O)cc1 , system HCC-2998 colon, measured growth is 108% (inactive)

---

tested on: PC-3 prostate; test: NCI-60 one-dose screen, 48 h; conditions: 10 µM unless noted
This is part of a sample that, as a whole, favours compounds with a hit. Of some 83,000 tested, about 20% had one in any assay. The source made the active and inactive calls. The calls were made as follows: active = growth percent below 10; inactive = the rest.
Result category, one only: true (active), false (inactive)

Input line: For this compound, state the assay outcome: COc1ccc(C2CC(c3cccc(Nc4ccncc4)c3)=NN2c2ccccc2)cc1 (stereo not drawn)
Output line: false

Input line: For this compound, state the assay outcome: O=C(CN1CCOCC1)Nc1ccc2ncnc(Nc3ccc(OCc4cccc(F)c4)c(Cl)c3)c2c1
Output line: false

Input line: For this compound, state the assay outcome: CCCCCCOc1ccc(/C=N/Nc2cc(C)nc3ccc(Br)cc23)cc1
Output line: true

---

Some compounds, each annotated with its measured growth.
test system: SF-539 CNS; test: NCI-60 one-dose screen, 48 h (100 = growth as untreated, 0 = no growth, -100 = all killed); details: 10 µM unless noted
About 83,000 compounds went through this panel and 20% of them were active in at least one assay; those are over-represented in the sample as a whole.
Numbers only; they are read as %.

Worked cases, answers included:
Cn1c2c(Cl)c(Cl)ccc2c2cc(N)[nH]c(=O)c21    82.8
c1ccc(CCSc2ncnc3nc[nH]c23)cc1    84.8
N#Cc1c(NC(=O)c2cccc(Br)c2)sc2c1CCCC2    86.6
O=C1Nc2c(ccc(Cl)c2Cl)/C1=C/c1ccc(O)cc1    98.3
O=S(=O)(NCCCNc1nccc(-c2c(-c3ccc(F)c(O)c3)nc3sccn23)n1)c1ccc(F)cc1    18.5
C#CCNC(=O)[C@H](Cc1ccccc1)NC(=O)[C@]12CC[C@@H](C(=C)C)[C@@H]1[C@H]1CC[C@@H]3[C@@]4(C)Cc5c([nH]c6ccccc56)C(C)(C)[C@@H]4CC[C@@]3(C)[C@]1(C)CC2    102

Documented growth of O=C1Nc2cc(-c3ccncc3)ccc2/C1=C/c1ccc[nH]1 : 91.9

Documented growth of Nc1nc(SN=Nc2ccc(S(N)(=O)=O)cc2)c2[nH]cnc2n1 : 14.9

Documented growth of O=C(CN1CCOCC1)Nc1ccc2ncnc(Nc3ccc(Oc4cccc(C(F)(F)F)c4)c(Cl)c3)c2c1 : 78.8

---

tested on: OVCAR-4 ovarian; test: NCI-60 one-dose screen, 48 h (100 = growth as untreated, 0 = no growth, -100 = all killed); details: 10 µM unless noted
The panel holds about 83,000 compounds, 20% with a hit somewhere; the sample as a whole holds those more often. Calls of active or inactive are those of the source. The calls were made as follows: active = growth percent below 10; inactive = the rest.
measured metric: growth

Worked cases, answers included:
NS(=O)(=O)c1cccc(NC(=O)C(=O)C2C(=O)Nc3ccccc32)c1 (stereo not given)    102% (inactive)
Cn1c(=O)c2[nH]c(CCCc3nc4c([nH]3)c(=O)n(C)c(=O)n4C)nc2n(C)c1=O    118% (inactive)
O=C(Nc1cccc(Cl)c1)Oc1c(Br)c(Br)c(Br)c(Br)c1Br    95.4% (inactive)
COc1ccc(-c2nc(SC)nc(N3CCOCC3)c2C#N)cc1    100% (inactive)
COc1nccnn1    101% (inactive)
CCCCCCC/C=C/[C@H]1O[C@]2(O)C(=O)C=C3C[C@@H](O[C@@H]4O[C@H](CO)[C@@H](O)C(O)[C@@H]4O)C[C@@H]3[C@H]2C=C1C (stereo not given in full)    29.6% (inactive)
N#Cc1c(Nc2ccccc2)nn2cc(-c3nc4ccccc4s3)c(N)nc12    -13.7% (active)
CCNC(=O)c1[nH]cc(-c2ccc(OC)cc2)c1-c1cc(OC)cc(OC)c1    81.4% (inactive)
COc1cc(NCCCN(CC(C)C)CC(C)C)c2ncccc2c1    17.2% (inactive)

Kindly review the next compound as well.
Let me check: COc1ccc(C2=NN(C(C)=O)C(c3cn(Cc4ccc(Cl)cc4)c4ccccc34)C2)cc1 (stereo not given) , system OVCAR-4 ovarian, measured growth is 70.1% (inactive)

---

tested on: UACC-257 melanoma; experiment: NCI-60 one-dose screen, 48 h (100 = growth as untreated, 0 = no growth, -100 = all killed); details: 10 µM unless noted
About 83,000 compounds went through this panel and 20% of them were active in at least one assay; those are over-represented in the sample as a whole.
Could you please classify the records by growth using these ranges: lower level = under 60%, middle level = from 60% up to 80%, upper level = 80% and over

COc1cc(-c2nc3sccn3c2-c2ccnc(NCCNS(=O)(=O)c3ccc(F)cc3)n2)ccc1F    lower level
c1ccc2c(-c3c4ccsc4cc4[nH]c5ccccc5c34)c[nH]c2c1    middle level
NC(=O)c1ncn(C2OC(CO)C(O)C2O)n1 (centres undefined)    upper level
CCCCCCN(C)Cc1ccc(OCCOc2ccc(CN(C)CCCCCC)cc2)cc1    lower level
O=C(N=Nc1c(O)[nH]c2ccc(F)cc12)c1cc2ccccc2[nH]1    upper level
COc1ccc(C(=O)c2cc3c(N)c(C(=O)Nc4cccc(OC)c4)sc3nc2C)cc1    middle level
C=C1C(=O)O[C@H]2[C@H]1CC/C(CNC(=O)/C=C/c1ccccc1F)=C\CC[C@@]1(C)O[C@@H]21    lower level
CCCCCCCCCCCCCCCCCCOc1ccccc1N    lower level
C[C@]12CCc3nc(Nc4cccc(O)c4)sc3C1=CC[C@@H]1[C@@H]2CC[C@]2(C)/C(=N\NC(N)=S)CC[C@@H]12    middle level
CS(=O)(=O)Nc1cc(-c2ccc3ncnc(Nc4ccc5[nH]ncc5c4)c3c2)cnc1Cl    lower level

Please turn your attention to the following entry.
Input line: Band for the recorded growth of CCC(C)C(N)C(=O)NNc1n[nH]c(=S)n1N (centres undefined) ?
Output line: upper level

---

Some compounds, each annotated with its measured growth.
System: NCI-H226 lung
Test: NCI-60 one-dose screen, 48 h (100 = growth as untreated, 0 = no growth, -100 = all killed)
Conditions: 10 µM unless noted
Procedure: Growth inhibition of the NCI-H226 human Non-Small Cell Lung tumor cell line is measured as a screen for anti-cancer activity. Cells are grown in 96 well plates and exposed to the test compound for 48 hours. Compounds are tested at a single concentration, which is 10^-5 M for most compounds. The reported endpoint is percent growth (GI% or GIPRCNT), where numbers from 0 - 100% represent growth inhibition, and numbers from -100% - 0 represent cell death. […]
This is part of a sample that, as a whole, favours compounds with a hit. Of some 83,000 tested, about 20% had one in any assay.
Numbers only; they are read as %.

Worked cases, answers included:
O=C(CN1CCOCC1)Nc1ccc2ncnc(Nc3ccc(Oc4cccc(F)c4)c(Cl)c3)c2c1    89.8
CCC(C)N(CCNc1cc(OC)cc2cccnc12)CCC(C)C (stereo unspecified)    88
Clc1ccc(C2CC(c3cccc(Nc4ccncc4)c3)=NN2c2ccc(Cl)cc2)cc1 (stereo unspecified)    91.9
O=C1OC(=O)C2C1CC=CC2c1ccccc1 (stereo unspecified)    90.6
Cn1/c(=N/NC(N)=S)ccc2ccccc21    88.9

Kindly review the next compound as well.
Documented growth of COc1ccccc1N1CCN(C(=O)c2ccc3nc(NC(=O)c4ccc(NCCc5ccccc5)c([N+](=O)[O-])c4)sc3c2)CC1 : 87.4
